- methodSummary: NCI Yeast Anticancer Drug Screen. Data for the sgs1 mgt1 strain (AID 161);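 further: 0% = growth of cultures given vehicle only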
- conditionNotes: S. cerevisiae sgs1 mgt1 strain, active compounds read high; at 50.0 µM unless noted
- Protocol: Growth inhibition of yeast strains with defined genetic alterations is measured as a screen for potential anti-cancer activity. Selected strains with alterations in DNA damage repair or cell cycle control were exposed to compounds and growth inhibition was measured relative to vehicle treated controls. The strain used in this assay is sgs1 mgt1
Compounds without any hit were thinned out: in the full panel of roughly 79,000, 15% have a hit.
Measured growth inhibition by item
Could you give me the number in %? Just the number is fine.

Worked examples, 3 compounds total:
1) CN(C)C1=NS(=O)(=O)c2ccccc21; -7.25
2) CC(=O)NC1CCC(CCC2CCCCC2)CC1 (centres undefined); 2.45
3) CC(C)COC(c1ccc2c(c1)OCO2)C(C)Br (centres undefined); 22.4

Value of growth inhibition reported for the compound CC(C)c1ccccc1O is 9.95

Value of growth inhibition reported for the compound O/N=C1/C2CC3CC1(c1ccccc1)CC(/C3=N/O)/C2=N\O (centres undefined) is -12.1

Value of growth inhibition reported for the compound O=C(O)c1ccccc1SCCO is 25.3

Value of growth inhibition reported for the compound Fc1ccccc1C1SCc2nc3cc4ccccc4cc3n21 (centres undefined) is 0.95

Value of growth inhibition reported for the compound CC(C)CNC(=O)c1ccccc1Cl is -5.4

###

- methodSummary: NCI Yeast Anticancer Drug Screen. Data for the bub3 strain (AID 167)
- conditionNotes: S. cerevisiae bub3 mutant strain, active compounds read high; at 50.0 µM unless noted
This is part of a sample that, as a whole, favours compounds with a hit. Of some 79,000 tested, about 15% had one in any assay.
attributeMeasured: growth inhibition (%)
Could you give me the number in %? Just the number is fine.

Value of growth inhibition reported for the compound CC1CC(C)(O)C2C3(C)CCCC2(COC3=O)C12CCC1(CCOC1=O)O2 (configuration not stated) is -0.6

Value of growth inhibition reported for the compound CCOc1ccccc1NC(=O)C(=O)C(C(=O)c1ccc2ccccc2c1)C1OC(=O)c2ccccc21 (configuration not stated) is 12.5

Value of growth inhibition reported for the compound CC[N+](CC)(CC)Cc1cn(S(=O)(=O)c2ccccc2)c2ccccc12 is -0.7

Value of growth inhibition reported for the compound Cn1ncc2c(NC(C)(C)CC(C)(C)C)ncnc21 is 45.4

Value of growth inhibition reported for the compound CC(C)CCOC=O is 24.9

Value of growth inhibition reported for the compound CCNC(=O)CCCC(=O)OC is 7.35

###

- methodSummary: NCI Yeast Anticancer Drug Screen. Data for the bub3 strain (AID 167)
- conditionNotes: S. cerevisiae bub3 mutant strain, active compounds read high; at 50.0 µM unless noted
About 79,000 compounds went through this panel and 15% of them were active in at least one assay; those are over-represented in the sample as a whole.
Measured growth inhibition by item
Could you give me the number in %? Just the number is fine.

Worked examples, 5 compounds total:
1. CC12CC[C@H](O)C(C)(C)[C@H]1CC[C@](C)(O)C2COc1ccc2ccc(=O)oc2c1 (stereo partly drawn); 76.3
2. C/C(=N\NC(N)=O)C1(O)CCCCC1; -19.1
3. CCC1=CCN(c2ccccn2)OC1c1ccc(OC)cc1 (stereo not drawn); 40.2
4. O=C1c2cc(Cc3ccccc3)c(=O)c(Cc3ccccc3)cc2C(=O)c2cc(Cc3ccccc3)c(=O)c(Cc3ccccc3)cc21; -6.35
5. COc1ccc(OC)c2[nH]c(Sc3c([N+](=O)[O-])ncn3C)nc12; -15.2

Value of growth inhibition reported for the compound CC1CCC2C(C)C(=O)OC2C2(C)C(=O)C=CC12 (stereo not drawn) is 2.7

Value of growth inhibition reported for the compound Nc1ccc(NC(=O)Nc2ccccc2)cc1 is -22.3

Value of growth inhibition reported for the compound O=C(NC12CC3CC(CC(C3)C1)C2)C(=O)c1c[nH]c2ccc(Cl)cc12 is 8.5
